System: MCF7
test protocol: Cytotoxicity against human MCF7 cells after 96 hrs by Giemsa staining-based light microscopy
Type: functional, cell-based
condition set: MCF7, 96 h
// reported IC50 for each item listed
// units = nM; emit number, no label

Worked examples, 10 compounds total:
smiles str	IC50, nM
COc1cc(C(=O)c2ccn(-c3ccc(F)cc3)c2)cc(OC)c1OC	190
COc1ccc(-n2ccc(C(=O)c3cc(OC)c(OC)c(OC)c3)c2)cc1[N+](=O)[O-]	830
COc1cc(C(=O)c2ccn(-c3cccc(N4CCCC4)c3)c2)cc(OC)c1OC	16
COc1cc(C(=O)c2ccn(-c3ccccc3F)c2)cc(OC)c1OC	1000
COc1cc(C(=O)c2ccn(-c3cccc(C)c3)c2)cc(OC)c1OC	50
COc1ccccc1-n1ccc(C(=O)c2cc(OC)c(OC)c(OC)c2)c1	3500
COc1cc(C(=O)c2ccn(-c3ccc(N)cc3)c2)cc(OC)c1OC	15
COc1ccc(-n2ccc(C(=O)c3cc(OC)c(OC)c(OC)c3)c2)cc1O	4500
COc1cc(C(=O)c2ccn(-c3cccc(N)c3)c2)cc(OC)c1OC	15
COc1cc(C(=O)c2ccn(-c3ccccc3)c2)cc(OC)c1OC	700

Please list IC50 recorded for the compound COc1ccc(-n2ccc(C(=O)c3cc(OC)c(OC)c(OC)c3)c2)cc1N
470

Dear colleague, please send me the reported IC50 for COc1cc(C(=O)c2ccn(-c3cccc(NS(C)(=O)=O)c3)c2)cc(OC)c1OC when you can.
60
